All values here come from ChEMBL document CHEMBL1201862.

Tested on: K562
method-notes: NCI tumour cell line growth inhibition, 48 h
Activity calls are given as the source filed them. Cut-off read from the data, not from the text of the source: active = GI50 up to about 1.1 µM and inactive = higher.
Mark one answer only. Choices: active, inactive

Reference set, count: 3
> print(dat)
                                   compound  category
1  CSc1ccc(/C=C2/C[N+](C)(C)C/C(=C/c3ccc(SC)cc3)C2=O)cc1  inactive
2  CC#CC1C2CCCC1(CSc1ccccc1)NC(=O)O2 (configuration not stated)  inactive
3  c1cc2[se][se]c3c4cccc5[se][se]c(c(c1)c23)c54  inactive

I'd appreciate the recorded outcome for CC1=C(C(=O)OCCc2ccc([N+](=O)[O-])cc2)C(c2ccccc2[N+](=O)[O-])C(C(=O)OC(C)C)=C(C)N1 (configuration not stated) from this test.
inactive

I'd appreciate the recorded outcome for `O=c1c2ccccc2nc2[nH][nH]c(=S)n12` from this test.
inactive

I'd appreciate the recorded outcome for `Cc1ccccc1-n1c(C)nc2c1C(=O)c1ccccc1C2=O` from this test.
inactive

I'd appreciate the recorded outcome for CC1CCCC(C(=O)/C(=C/c2cccc(Cl)c2)C(=O)C(=O)O)C1 (configuration not stated) from this test.
inactive

I'd appreciate the recorded outcome for O=C(CC(=O)N1N=C(n2ccc3ccccc32)CC1c1ccccc1)Nc1ccc(Cl)cc1 (configuration not stated) from this test.
inactive

I'd appreciate the recorded outcome for `Cc1csc(-n2nc(C)cc2C)n1` from this test.
inactive

I'd appreciate the recorded outcome for `Nc1ccc(-c2nc3ccccc3s2)cc1C#Cc1ccccc1` from this test.
inactive

I'd appreciate the recorded outcome for `C=CCSSCC=C` from this test.
inactive

I'd appreciate the recorded outcome for `CC(C)OC(=O)c1ccc(NCC2=CC(=O)C=CC2=O)cc1` from this test.
inactive

I'd appreciate the recorded outcome for `O=C1Nc2ccccc2/C1=N/Nc1ccc([N+](=O)[O-])cc1[N+](=O)[O-]` from this test.
inactive

I'd appreciate the recorded outcome for `Oc1c(C(O)(c2ccccc2)c2ccc3ccccc3c2O)ccc2ccccc12` from this test.
inactive

I'd appreciate the recorded outcome for `CCOC(=O)Cc1ccc(Nc2nc3cc(F)c(F)cc3nc2C(=O)OCC)cc1` from this test.
inactive

I'd appreciate the recorded outcome for `O=c1[nH]/c(=C/c2ccc(OCc3ccccc3)cn2)c(=O)[nH]/c1=C/c1ccc(F)cc1` from this test.
active

I'd appreciate the recorded outcome for O=C(CC(=O)Nc1ccccc1)NNC(Sc1ccccc1)c1cc(/N=N/c2ccc(Br)cc2)ccc1O (configuration not stated) from this test.
inactive

* * *

System: TK-10
method-notes: NCI tumour cell line growth inhibition, 48 h
Active and inactive are the calls of the source. Rule as the data show it: active = GI50 up to about 1.1 µM and inactive = higher.
parameter: GI50

These recorded examples may help you get a feel for the data.
> print(dat)
                                   compound  study.target      recorded.result
1               O=C1CCCC2=C(N1)C(=O)C=CC2=O         TK-10   42.4 µM (inactive)
2  O=c1c2ccccc2nc(-c2ccccc2)n1NC(=S)Nc1ccc(Cl)cc1[N+](=O)[O-]         TK-10  > 100 µM (inactive)
3  Cc1nc2nc3c(ncn3COCCO)c(O)n2c1C(c1ccccc1)(c1ccccc1)c1ccccc1         TK-10   16.6 µM (inactive)

What value of GI50 has been reported for the following compound? O=C(CC(=O)Nc1ccccc1)NNC(Sc1ccccc1)c1cc(/N=N/c2ccc(Br)cc2)ccc1O (stereo not given)
1.45 µM (inactive)

What value of GI50 has been reported for the following compound? CCOC(=O)C1=C(C)NC(C)=C(C(=O)OCCNC(=O)c2ccc(N=[N+]=[N-])cc2)C1c1ccccc1C(F)(F)F (stereo not given)
8.22 µM (inactive)

What value of GI50 has been reported for the following compound? O=C1CN2C(c3ccccc3)=NN(c3ccc([N+](=O)[O-])cc3)C2(c2ccccc2)c2cc(Cl)ccc2N1CC1CC1 (stereo not given)
> 100 µM (inactive)

What value of GI50 has been reported for the following compound? `CN(C)C(=C1c2cc([N+](=O)[O-])ccc2-c2ccc([N+](=O)[O-])cc21)N(C)C`
> 100 µM (inactive)

What value of GI50 has been reported for the following compound? OCCC1(O)CCC(O)CC1 (stereo not given)
> 100 µM (inactive)

What value of GI50 has been reported for the following compound? O=C1/C(=C/c2ccccc2O)N=C(c2ccccc2)N1C1Nc2cc3c(cc2S1)NC(N1C(=O)/C(=C/c2ccccc2O)N=C1c1ccccc1)S3 (stereo not given)
25.4 µM (inactive)

What value of GI50 has been reported for the following compound? C=C1C(=O)OC2/C=C(\C)C3OC3/C=C(/C(=O)OC)C(O)C(OC(=O)C3(C)OC3C)C12 (stereo not given)
2.74 µM (inactive)

* * *

Listed next: entries and their corresponding GI50.
Tested on: SR
method-notes: NCI tumour cell line growth inhibition, 48 h
Activity calls are given as the source filed them. Cut-off read from the data, not from the text of the source: active = GI50 up to about 1.1 µM and inactive = higher.

What value of GI50 has been reported for the following compound? `NCCCCc1cc(O)c2c(c1O)C(=O)c1ccccc1C2=O`
3.18 µM (inactive)

What value of GI50 has been reported for the following compound? `Cc1oc2c(c1C)S(=O)(=O)C(C#N)=CN2`
> 100 µM (inactive)

What value of GI50 has been reported for the following compound? `Cc1c(C#N)c2nc3ccccc3n2c(=O)/c1=C/Nc1ccc(Cl)cc1`
> 100 µM (inactive)

What value of GI50 has been reported for the following compound? `NCc1ccc(O)c(O)c1`
38.5 µM (inactive)

What value of GI50 has been reported for the following compound? `O=C(Cn1c2ccc(Br)cc2c2nc3ccccc3nc21)NCc1ccccc1`
39.4 µM (inactive)

What value of GI50 has been reported for the following compound? `c1ccc(/C(=N/Nc2ccncn2)c2ccccn2)cc1`
10.5 µM (inactive)

* * *

Listed next: entries and their corresponding GI50.
System: NCI-H23
method-notes: NCI tumour cell line growth inhibition, 48 h
The source made the active and inactive calls. Cut-off read from the data, not from the text of the source: active = GI50 up to about 1.1 µM and inactive = higher.

These recorded examples may help you get a feel for the data.
> print(dat)
                                   compound  parameter      recorded.result
1  C=CCc1ccccc1C1CC2(C(=O)OC)OC1C(C(=O)OC)=C2C(=O)OC (stereo not given)       GI50   > 10 µM (inactive)
2  CC(C)(C)c1cc(CCC(=O)Nc2ccc(Cl)cc2Cl)nc(N)n1       GI50  > 100 µM (inactive)
3    CCC[C@@H]1C(=O)N=C(N)N1C(=O)OCc1ccccc1       GI50  > 100 µM (inactive)
4  CCOC(=O)C(C(=O)OCC)c1cc(-c2cc3ccccc3o2)oc(=O)c1C#N       GI50     16 µM (inactive)

What value of GI50 has been reported for the following compound? `COc1ccc(N(C(=O)Nc2ccc(Cl)c(Cl)c2)c2ccccc2)cc1`
> 10 µM (inactive)

* * *

Listed next: entries and their corresponding GI50.
System: SF-295
method-notes: NCI tumour cell line growth inhibition, 48 h
The source made the active and inactive calls. Rule as the data show it: active = GI50 up to about 1.1 µM and inactive = higher.

These recorded examples may help you get a feel for the data.
compound	GI50
Cc1ncc([N+](=O)[O-])n1CCNC(=O)CCC(=O)NCCCn1ccnc1[N+](=O)[O-]	> 100 µM (inactive)
O=C(NC(Nc1ccc(F)c(Cl)c1)(C(F)(F)F)C(F)(F)F)OCc1ccccc1	28.2 µM (inactive)
CNC(=O)c1nn[nH]c1O	> 100 µM (inactive)
CCOC(=O)Cc1ccc(Nc2nc3cc(F)c(F)cc3nc2C(=O)OCC)cc1	73.1 µM (inactive)
CSc1ccc(C(=O)C(=O)c2ccc(SC)s2)s1	> 10 µM (inactive)

What value of GI50 has been reported for the following compound? `Cn1c2ccccc2n2c(=O)c3cccnc3c(C#N)c12`
> 100 µM (inactive)

* * *

Tested on: LOX IMVI
method-notes: NCI tumour cell line growth inhibition, 48 h
Active and inactive are the calls of the source. Rule as the data show it: active = GI50 up to about 1.1 µM and inactive = higher.
Mark one answer only. Choices: True for active, False for inactive

compound	category
COC(=O)c1c(O)ccc2c1c1c(n2CCc2ccccc2)C(=O)c2ccccc2C1=O	False
COc1cc2c3c(c4cc(OC)c(OC)cc4c2cc1OC)[C@H](O)[C@@H]1CCCN1C3	True
Cc1nc2c(o1)C(=O)c1ccccc1/C2=N/c1ccccn1	False
COc1cc(C2c3cc4c(cc3OC(O)C2C)OCO4)cc(OC)c1OC (stereo not given)	True
COc1ccccc1N1C(=O)CS(=O)(=O)C1c1cccc(Oc2ccccc2)c1 (stereo not given)	False
CCN(CC)C(=S)N/N=C(\C)c1ccccc1O	False

I'd appreciate the recorded outcome for `COc1ccc(OC)c(NC(=O)C(=O)NNC(=O)c2sc(NNC(C)=O)nc2C)c1` from this test.
False

I'd appreciate the recorded outcome for `CC(=O)c1sc2c(c1OC(=O)c1ccco1)c(=O)n(-c1ccccc1)c(=S)n2-c1ccccc1` from this test.
False

I'd appreciate the recorded outcome for Cc1ccc(NC(=O)S(N)(c2ccc(C)cc2)[N+](=O)[O-])cc1 (stereo not given) from this test.
False

I'd appreciate the recorded outcome for `N#Cc1c(-c2ccccc2)c(C#N)c(=O)n(NS(=O)(=O)c2ccccc2)c1O` from this test.
False

I'd appreciate the recorded outcome for C=CCC(C(=O)O)c1ccccc1 (stereo not given) from this test.
False

I'd appreciate the recorded outcome for CC1=CC2=C(C(N)=O)C(=O)OC2(C)C(c2ccccc2)C1 (stereo not given) from this test.
False

I'd appreciate the recorded outcome for `COc1ccc(-c2c3ccccc3c(-c3ccc(OCCBr)cc3)c3ccccc23)cc1` from this test.
False

I'd appreciate the recorded outcome for `CNC(=O)c1nn[nH]c1O` from this test.
False

I'd appreciate the recorded outcome for C=C(C)[C@H]1CC[C@@]23O[C@@H]2[C@@H](C[C@@]2(C)CC(=O)[C@H](CC(=O)C1)O2)OC(=O)[C@@]12CC[C@H](C(=C)C)CC(=O)C[C@H]4O[C@](C)(CC4=O)C[C@@H](OC3=O)[C@@H]1O2 [SINGARDIN] from this test.
False
